# tgt: Alpha-2C adrenergic receptor (Homo sapiens)
# method: compounds altering alpha2C-coupled GIRK flux – cell-based, HEK293 alpha2C/GIRK1/2, thallium flux, primary screen (AID 624);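 also: slope of fluorescence ratio to pre-addition baseline per second over 15 to 24 s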
# test_settings: thallium flux BTC fluorescence, at 10 µM, actives lie on both sides
# slope >= 0.005 gives satisfied, anything below gives not satisfied

Worked examples, 3 molecules total:
- molecule: "CC(C)CN(CC(C)C)C(=O)C12CCC(C)(C(=O)C1)C2(C)C (centres undefined)"
  category_label: "satisfied"
- molecule: "CN1CCN(c2nc3c(c(=O)[nH]c(=O)n3C)n2CCOc2ccccc2)CC1"
  category_label: "satisfied"
- molecule: "CCOc1cc(C2/C(=C(/O)c3ccc(OC(C)C)cc3)C(=O)C(=O)N2CCCOC)ccc1O (centres undefined)"
  category_label: "not satisfied"

I'd appreciate it if you could say whether Cc1cc(C(=O)CSc2nc3ccccc3n2CCC#N)c(C)n1Cc1cccs1 has slope at least equal to 0.005.
satisfied

Please tell me: is the molecule O=C(Nc1ccc2c(c1)OCO2)C(c1ccccc1)N1CCC2(CC1)OCCO2 (centres undefined) at or over 0.005 in terms of slope?
not satisfied

Hello, I need to know if O=C(OC1CCc2ccccc2C1=O)c1ccccc1O (centres undefined) has measured slope not below 0.005. Thanks!
satisfied

Can COC(=O)c1ccc(CSc2nc3ccccc3s2)o1 be said to have slope at or above 0.005?
not satisfied

hey, is slope for this one >= 0.005? CC1CCc2nn(CC(=O)NCc3ccc(F)cc3)cc2C1 (centres undefined)
satisfied

Identify whether the reported slope of the following molecule is 0.005 or greater: COC(=O)[C@H](CCSC)NC(=O)Nc1cc(C)ccc1C
satisfied

Tell me whether slope is at least 0.005 here: CC1Oc2ccccc2N(CC(=O)NCc2cccs2)C1=O (centres undefined)
not satisfied

Please check the record OCc1nc2ccccc2n1CCCOc1ccccc1 and state if its slope is at or above 0.005.
satisfied

Determine whether this molecule has slope no lower than 0.005: c1cnc(NCCNc2ncccn2)nc1
satisfied

Determine whether measured slope meets or exceeds 0.005 for CCCCn1nnnc1NCc1cccs1
satisfied

----------
# method: inhibitors of TNFa-induced NFkB p65 translocation, primary screen, imaging, HUVEC, MLSMR starter and 10KST1 sets (AID 438);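 also: compound added about 3h40 before a 20 min TNFalpha stimulation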
# test_settings: HUVEC TNFa-induced p65 nuclear translocation; measured here: nuclei count (cytotoxicity indicator), at 2.08 µM
Could you label it Fulfilled if measured cell count is 500 or higher, and Not fulfilled otherwise?

A selection of reference data follows.
- compound: "c1ccc2c(SCc3cn4cccnc4n3)ncnc2c1"
  category_label: "Fulfilled"
- compound: "CS(=O)(=O)c1ccc2nc(NC(=O)CCC(=O)c3cccs3)sc2c1"
  category_label: "Fulfilled"
- compound: "O=C(CN(Cc1cccs1)C(=O)CNS(=O)(=O)c1ccccc1)NCc1ccco1"
  category_label: "Not fulfilled"
- compound: "O=C(Nc1ccccc1)N1C(=O)C2(OCCO2)c2ccccc21"
  category_label: "Not fulfilled"
- compound: "c1ccc(-c2noc(-c3cccnc3)n2)nc1"
  category_label: "Not fulfilled"
- compound: "CCc1cc2ccc(C)cc2nc1SCC(=O)N1CCN(C(=O)c2ccco2)CC1"
  category_label: "Not fulfilled"

Could you tell me if the measured cell count of O=C(CN1C(=O)NC(Cc2ccccc2)C1=O)Nc1ccccc1 (configuration not stated) reaches 500 or more?
Not fulfilled

State whether the measured cell count reaches 500, counting equality as reaching it, for Cc1noc(/C=C/N(C)C)c1S(=O)(=O)N1CCCC(C(=O)NC2CCCCC2)C1 (configuration not stated)
Fulfilled

hey, is cell count for this one >= 500? CC(C)[C@H](NC(=O)NCc1ccc(Cl)cc1)C(=O)O
Not fulfilled

Reported cell count at or above 500? CCn1c(CCC(=O)Nc2nc3c(s2)CCCC3)nc2cc(S(=O)(=O)N(C)C)ccc21
Not fulfilled

Quick check, cell count >= 500? CCOc1ccc(OCC)c(NS(=O)(=O)c2ccc3c(c2)n(C)c(=O)c(=O)n3C)c1
Not fulfilled

Check the entry COC(=O)c1ccc(NC(=O)C2C3CCC(C3)C2C(=O)O)cc1 (configuration not stated) : does cell count equal or exceed 500?
Not fulfilled
